Each record here notes measured melting point.

| compound | melting point |
| --- | --- |
| O=C(O)Cc1cc(I)c(Oc2cc(I)c(OCC3CO3)c(I)c2)c(I)c1 (stereo not given) | 176 °C |
| O=S(=O)(OCC(I)C(F)(F)C(F)(F)C(F)(F)C(F)(F)F)OCC(I)C(F)(F)C(F)(F)C(F)(F)C(F)(F)F (stereo not given) | 45 to 48 °C |
| CC(C)=CCCC(C)=CCCC(C)=CCCC(C)=CCCC(C)=CCCC(C)=CCCC(C)=CCCC(C)=CCCC(C)=CCCC(C)=CCNCC12CCCN1CCC2 | 59 to 61 °C |
| CCc1nc2c(cnn2CC)c(NC2CCOCC2)c1CNC(=O)c1cccc(C(=O)NCc2ccc(C)c(-c3cccc(CN4CCN(C(=O)OC(C)(C)C)C(C)C4)c3)c2)c1 (stereo not given) | 115 to 118 °C |

Lookup result for CCCCCCCCCCOc1cc2c3c(c4cc(OCCCCCCCCCC)c(OCCCCCCCCCC)cc4c2cc1OCCCCCCCCCC)C(=O)C=CC3=O ; measured melting point: 86 to 87 °C

Lookup result for CCCCCCCCCCCCN(c1nc(NCC(O)C2CC(C)(C)NC(C)(C)C2)nc(NCC(O)C2CC(C)(C)NC(C)(C)C2)n1)c1nc(NCC(O)C2CC(C)(C)NC(C)(C)C2)nc(NCC(O)C2CC(C)(C)NC(C)(C)C2)n1 (stereo not given) ; measured melting point: 106 to 110 °C

Lookup result for O=C(Nc1ccc(Cl)cc1)NC1CCN(S(=O)(=O)c2ccc(C(=O)O)cc2)CC1 ; measured melting point: 266 to 270 °C

Lookup result for CCCCCCCCCCCCCC=CC(OC(=O)c1ccccc1)C(COC1OC(COCCC(C(=O)OC(C)(C)C)C(=O)OC(C)(C)C)C(O)C(O)C1O)NC(=O)CCCCCCCCCCCCCCC (stereo not given) ; measured melting point: 47.5 to 48.5 °C

Lookup result for IC(I)=C(I)CCOCCC(I)=C(I)I ; measured melting point: 43.5 to 44.5 °C

Lookup result for CC(c1cc(C(C)(C)C)cc(C(C)(C)C)c1O)c1cc(C(C)(C)C)cc(C(C)(C)C)c1OP1Oc2c(cc(C(C)(C)C)cc2C(C)(C)C)C(C)c2cc(C(C)(C)C)cc(C(C)(C)C)c2O1 (stereo not given) ; measured melting point: 219 to 221 °C

Lookup result for CC(C)(C)c1cc(SC(Sc2cc(C(C)(C)C)c(O)c(C(C)(C)C)c2)C(Sc2cc(C(C)(C)C)c(O)c(C(C)(C)C)c2)Sc2cc(C(C)(C)C)c(O)c(C(C)(C)C)c2)cc(C(C)(C)C)c1O ; measured melting point: 221 to 223 °C

Lookup result for CC(C)(C)OC(=O)CC[C@H](NC(=O)CNC(=O)[C@H](CSC(c1ccccc1)(c1ccccc1)c1ccccc1)NC(c1ccccc1)(c1ccccc1)c1ccccc1)C(=O)OC(C)(C)C ; measured melting point: 98 to 110 °C

Lookup result for NS(=O)(=O)c1ccc(-c2c(-c3ccccc3)noc2CO[N+](=O)[O-])cc1 ; measured melting point: 47 to 50 °C

Lookup result for CC1c2cc(C(C)(C)C)cc(C(C)(C)C)c2OP(OP2Oc3c(cc(C(C)(C)C)cc3C(C)(C)C)C(C)c3cc(C(C)(C)C)cc(C(C)(C)C)c3O2)Oc2c1cc(C(C)(C)C)cc2C(C)(C)C (stereo not given) ; measured melting point: 281 to 285 °C

Lookup result for O=C(O)CCCOc1c(Cl)cccc1Cl ; measured melting point: 66 to 67 °C
